measured_on: T1, recombinant human DLL3 (ELISA coat) (human, UniProt Q9NYJ7 27-492)
T1 sequence: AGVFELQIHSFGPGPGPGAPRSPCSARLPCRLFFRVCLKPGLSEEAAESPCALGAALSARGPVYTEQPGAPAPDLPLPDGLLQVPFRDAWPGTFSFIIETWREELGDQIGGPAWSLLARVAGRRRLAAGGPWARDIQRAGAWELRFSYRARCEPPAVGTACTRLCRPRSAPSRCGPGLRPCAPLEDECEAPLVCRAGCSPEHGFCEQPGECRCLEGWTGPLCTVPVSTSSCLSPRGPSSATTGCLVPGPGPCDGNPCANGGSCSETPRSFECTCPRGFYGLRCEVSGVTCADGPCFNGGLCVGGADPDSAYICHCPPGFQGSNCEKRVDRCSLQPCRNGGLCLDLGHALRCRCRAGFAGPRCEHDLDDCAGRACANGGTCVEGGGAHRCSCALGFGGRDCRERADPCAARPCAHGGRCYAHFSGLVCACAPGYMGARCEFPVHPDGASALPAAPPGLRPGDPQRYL
method_notes: ELISA, plate coated with recombinant human DLL3 0.5 µg/ml, anti-mouse IgG-HRP
pEC50: −log10 of the molar value.
Property: pEC50; scope: individual binders

| binder | pEC50 |
| --- | --- |
| anti-DLL3 antibody clone 2F7 (antibody, V domains shown, Murine antibody produced from a mouse hybridoma) VH: QVQLQQSGAELMKPGASVKLSCKATGYTFTGYWIDWIKQRPGHGLEWVGEILPGSDNINYNEKFRGKATFTADTSSNTAYIQLSSLTTEDSAIYFCARCGTGPWFTYWGQGTLVTVSA VL: NIMMTQSPSSLAVSAGEKVTMSCKSSQSVLYSSNQKNYLAWYQQKPGQSPRLLIYWASTRASGVPDRFTGSGSGTDFTLTITNIQPEDLAVYYCHQFLSSTWTFGGGTKLEIK | 9.52 |
| murine anti-DLL3 antibody clone 5E7 (antibody, V domains shown, Murine antibody produced from a mouse hybridoma, captured on anti-mouse Fc in SPR; also called m5E7; murine 5E7) VH: EVQLQQSGAELVRPGASVKLSCTASGFNIKDDYIHWVKQWPEQGLEWIGWIDSENGDTEYASKFQGKATMTADTSSNTAYLQLSGLTSEDTAVYYCTTSSYYSYDLFVYWGQGTLVTVSA VL: DVLMTQTPLTLSVPIGQPASISCKSSQSLLHSNGKTYLNWLLQRPGQSPKLLIYLVSKLESGVPDRFSGSGSGTDFTLKISRVEAEDLGVYYCLQTTHLYTFGGGTKLEIK | 10.15 |
| anti-DLL3 antibody clone 9E6 (antibody, V domains shown, Murine antibody from a mouse hybridoma) VH: QLQLVQSGPELMRPGETVKISCKASGYTFTTYGMNWVKQAPGKGLKWVGWINTYSGVPTYADDFKGRFAFSLESSASTAFLQINNLKDEDTATYFCARFGNYGFDCWGQGTTLTVSS VL: DIVMTQSPSSLSVSAGEKVTMSCKSSQSLLNSGNQKNYLAWYQQKPGQPPKLLIYGASTRESGVPDRFTGSGSGTDFTLTISSVQAEDLAVYYCQNDHIYPYTFGGGTKLEIK | 9.35 |
| anti-DLL3 antibody clone 2H6 (antibody, V domains shown, Murine antibody from a mouse hybridoma) VH: QIQLVQSGPELKKPGETVKISCKASGYTFTTYGVNWVKQAPGKGLKWMGWINTYSGVPTYADDFKGRFAFSLETIATTAYLQINNLKNEDTATYFCARFGNYGFDYWGQGTTLTVSS VL: DIVMTQSPSSLSVSAGEKVTMSCKSSQSLVNSGNQKNYLAWYQQKPGQPPKLLISGASTRESGVPDRFTGSGSGTDFTLTISSVQAEDLAVYYCQNDHNYPYTFGGGTKLEIK | 10.22 |
| anti-DLL3 antibody clone 10F5 (antibody, V domains shown, Murine antibody from a mouse hybridoma) VH: QLQLVQSGPELMRPGETVKISCKASGYTFTTYGMNWVKQAPGKGLKWVGWINTYSGVPTYADDFKGRFAFSLESSASTAFLQINNLKDEDTATYFCARFGNYGFDCWGQGTTLTVSS VL: DIVMTQSPSSLSVSAGEKVTMSCKSSQSLLNSGNQKNYLAWYQQKPGQPPKLLIYGASTRESGVPDRFTGSGSGTDFTLTISSVQAEDLAVYYCQNDHIYPYTFGGGTKLEIK | 9.19 |
